MEASUREMENT PROTOCOL: in vivo
EXPERIMENTAL PARAMETERS: NOD SCID, mouse, ip, 1 mg/kg, Plasma Concentration, Mean
METRIC NAME: concentration at 0.167 h (ng/mL)

> print(dat)
                                   compound               metric.name    uom  number
1  CC[C@@]1(O)C(=O)OCc2c1cc1n(c2=O)Cc2c-1nc1cc3c(c4c1c2[C@@H](NC(=O)[C@@H](C)O)CC4)OCO3 [PBX-7016]  concentration at 0.167 h  ng/mL     164

====

MEASUREMENT PROTOCOL: in vivo
EXPERIMENTAL PARAMETERS: NOD SCID, mouse, iv, 1 mg/kg, Plasma Concentration, individual mice
METRIC NAME: concentration at 0.167 h

> print(dat)
                                   compound               metric.name      result
1  CC[C@@]1(O)C(=O)OCc2c1cc1n(c2=O)Cc2c-1nc1cc3c(c4c1c2[C@@H](NC(=O)[C@@H](C)O)CC4)OCO3 [PBX-7016]  concentration at 0.167 h  76.2 ng/mL

These data points were gathered from patent US20250248993A1.
